Measured on: Sigma non-opioid intracellular receptor 1 (Cavia porcellus)
Assay method text: Displacement of [3H]-(+)pentazocine from sigma-1 receptor in guinea pig brain membranes after 120 mins by scintillation counting method relative to control
Format: cell membranes
Set-up: concentration or dose not given beside the values
Measured parameter: inhibition (%)

Consider the worked cases shown below.
1. COc1ccc2c(c1)CCN(CCC#Cc1cccs1)CC2O (configuration not stated): 21
2. COc1ccc2c(c1)CCN(CCC#Cc1ccccc1OCCF)CC2O (configuration not stated): 31
3. COc1ccc2c(c1)CCN(CCC#Cc1nccs1)CC2O (configuration not stated): 0

(A) OC1CN(CCC#Cc2ccc(OCCF)cc2)CCc2cc(OCc3ccccc3)ccc21 (configuration not stated)
(B) COc1ccc2c(c1)CCN(CCCCc1cn(CCF)nn1)CC2O (configuration not stated)
(C) COc1ccc2c(c1)CCN(CCC#Cc1cccc(OCCF)c1)CC2O (configuration not stated)
(D) COc1ccc2c(c1)CCN(CCC#Cc1cccnc1)CC2O (configuration not stated)
Lookup: Rank the items in ascending order with respect to inhibition. The labels, placed in the requested order, form the answer.
Found: A, D, C, B
(A: 0%, D: 5%, C: 9%, B: 28%)

###

Measured on: Glutamate receptor ionotropic, NMDA 2B (Homo sapiens, UniProt Q05586+Q13224)
Sequence (Q13224 whole entry, one chain of several): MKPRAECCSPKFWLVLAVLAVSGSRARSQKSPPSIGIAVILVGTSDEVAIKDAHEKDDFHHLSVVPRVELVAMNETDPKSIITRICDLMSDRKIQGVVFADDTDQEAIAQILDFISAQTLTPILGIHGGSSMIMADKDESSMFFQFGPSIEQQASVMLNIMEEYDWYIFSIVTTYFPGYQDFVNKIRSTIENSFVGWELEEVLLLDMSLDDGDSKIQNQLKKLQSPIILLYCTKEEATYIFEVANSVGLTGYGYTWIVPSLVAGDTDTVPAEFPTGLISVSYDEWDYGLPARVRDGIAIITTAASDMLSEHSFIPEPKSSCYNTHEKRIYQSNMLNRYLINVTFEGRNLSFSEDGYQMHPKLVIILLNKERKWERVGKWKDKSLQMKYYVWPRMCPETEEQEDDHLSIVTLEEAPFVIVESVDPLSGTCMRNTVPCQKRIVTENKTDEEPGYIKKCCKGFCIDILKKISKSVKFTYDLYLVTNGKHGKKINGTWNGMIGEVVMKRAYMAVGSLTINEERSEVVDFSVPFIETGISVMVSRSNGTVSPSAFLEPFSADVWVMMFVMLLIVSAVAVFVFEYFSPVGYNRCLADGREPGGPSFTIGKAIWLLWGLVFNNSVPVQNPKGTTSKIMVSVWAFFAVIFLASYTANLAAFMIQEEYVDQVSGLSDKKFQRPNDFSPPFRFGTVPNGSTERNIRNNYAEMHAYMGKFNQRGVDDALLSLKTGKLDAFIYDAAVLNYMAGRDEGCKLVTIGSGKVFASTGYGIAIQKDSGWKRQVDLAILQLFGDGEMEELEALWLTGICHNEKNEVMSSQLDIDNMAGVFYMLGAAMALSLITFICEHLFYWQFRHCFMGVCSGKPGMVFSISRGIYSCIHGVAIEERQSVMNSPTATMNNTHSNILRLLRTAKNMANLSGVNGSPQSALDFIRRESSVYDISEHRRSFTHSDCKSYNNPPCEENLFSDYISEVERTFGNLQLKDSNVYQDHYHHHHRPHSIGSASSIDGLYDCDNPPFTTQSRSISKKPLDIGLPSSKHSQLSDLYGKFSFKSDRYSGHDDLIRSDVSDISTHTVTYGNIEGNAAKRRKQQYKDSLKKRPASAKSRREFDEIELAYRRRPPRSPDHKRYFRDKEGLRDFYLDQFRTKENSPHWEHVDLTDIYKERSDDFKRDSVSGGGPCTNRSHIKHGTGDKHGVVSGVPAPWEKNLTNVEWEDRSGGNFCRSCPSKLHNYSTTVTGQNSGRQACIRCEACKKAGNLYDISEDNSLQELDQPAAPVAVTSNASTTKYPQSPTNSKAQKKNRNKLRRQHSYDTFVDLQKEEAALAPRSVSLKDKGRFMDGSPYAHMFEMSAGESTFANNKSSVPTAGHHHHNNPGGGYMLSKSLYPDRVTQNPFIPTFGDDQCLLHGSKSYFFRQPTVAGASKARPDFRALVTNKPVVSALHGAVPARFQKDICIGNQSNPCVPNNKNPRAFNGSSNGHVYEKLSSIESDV
Assay method text: Displacement of [3H]ifenprodil from human GluN2B expressed in mouse L(tk-) cell membranes co-expressing GluN1a incubated for 120 mins by scintillation counting method
pKi: −log10 of the molar value.
Measured parameter: pKi

(1) COc1ccc2c(c1)CCN(CCCC#Cc1ccccc1)CC2O (configuration not stated)
(2) Oc1ccc2c(c1)CCN(CCCCc1ccc(OCCF)cc1)CC2O (configuration not stated)
Lookup: Hi, I'm comparing two records. Which one has the lower pKi, 1 or 2 ? Label of pick, please.
Found: 1

###

Assay method text: Displacement of [3H]-(+)-MK-801 from NMDA PCP binding site in pig brain cortex membrane at 1 uM incubated for 120 mins by scintillation counting method relative to control
Assay type: cell membranes
Measured parameter: inhibition (%)

Consider the worked cases shown below.
1. COc1ccc2c(c1)CCN(CCCCc1cn(CCF)nn1)CC2O (centres undefined): 0
2. COc1ccc2c(c1)CCN(CCC#Cc1cccs1)CC2O (centres undefined): 0
3. Oc1ccc2c(c1)CCN(CCCCc1ccc(OCCF)cc1)CC2O (centres undefined): 0
4. COc1ccc2c(c1)CCN(CCCCc1cccnc1)CC2O (centres undefined): 0
5. COc1ccc2c(c1)CCN(CCCC#Cc1ccccc1)CC2O (centres undefined): 9

(P) COc1ccc2c(c1)CCN(CCCCc1ccccc1OCCF)CC2O (centres undefined)
(Q) COc1ccc2c(c1)CCN(CCC#Cc1ccccc1)CC2O (centres undefined)
Lookup: Hi, I'm comparing two records. Which one has the lower inhibition, P or Q ? Label of pick, please.
Found: P
(P: 0%, Q: 15%)

###

Measured on: Sigma intracellular receptor 2 (Rattus norvegicus, UniProt Q5U3Y7)
Sequence (Q5U3Y7 whole entry): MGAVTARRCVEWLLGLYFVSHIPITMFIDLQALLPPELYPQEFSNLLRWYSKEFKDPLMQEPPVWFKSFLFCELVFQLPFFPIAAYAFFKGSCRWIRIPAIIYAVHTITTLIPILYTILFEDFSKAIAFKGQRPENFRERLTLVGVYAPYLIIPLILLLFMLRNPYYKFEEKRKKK
Assay method text: Displacement of [3H]-Di-o-tolylguanidine from sigma-2 receptor in rat liver membranes after 120 mins by scintillation counting method
Format: cell membranes
pKi: −log10 of the molar value.
Measured parameter: pKi

1) COc1ccc2c(c1)CCN(CCCC#Cc1ccccc1)CC2O (stereo not given): 6.06
2) COc1ccc2c(c1)CCN(CCCCc1cccnc1)CC2O (stereo not given): 6.40
3) COc1ccc2c(c1)CCN(CCCCc1cccs1)CC2O (stereo not given): 6.25

(1) COc1ccc2c(c1)CCN(CCCCc1ccccc1OCCF)CC2O (stereo not given)
(2) Oc1ccc2c(c1)CCN(CCCCc1ccc(OCCF)cc1)CC2O (stereo not given)
Lookup: Hi, I'm comparing two records. Which one has the lower pKi, 1 or 2 ? Label of pick, please.
Found: 1
(1: 6.23, 2: 7.10)
